Cited source for all entries: ChEMBL document CHEMBL5058577

Examples of molecules with documented Total Cell Count follow.
# Tested on: Fibroblast
# TEST DETAILS: Multiplex assay against human fibroblast
# Assay type: toxicity, cell-based
# EXPERIMENTAL PARAMETERS: 48 h, 10 µM, compound concentration 10 uM, replicate 1
Give a plain numeric answer without units written out.

Examples with their reported Total Cell Count follow.
* CCCCC(=O)N(Cc1ccc(-c2ccccc2-c2nnn[nH]2)cc1)[C@H](C(=O)O)C(C)C | 112
* CC(C)COc1ccc(CNC(=O)N(Cc2ccc(F)cc2)C2CCN(C)CC2)cc1 | 163
* CC(/C=C1\SC(=S)N(CCCC(=O)Nc2ccc(C(=O)O)c(O)c2)C1=O)=C\c1ccccc1 | 124
* O=C(NCCN1CCC(n2c(=O)[nH]c3cc(Cl)ccc32)CC1)c1ccc(F)cc1 [HALOPEMIDE] | 229
* COc1cccc2c1c(NS(=O)(=O)c1ccc(Cl)s1)nn2Cc1cccc(CNC(=O)C(C)(C)O)c1 | 187

Switching to the query record.
Requested field: Total Cell Count. Item: `CCc1cc2cc(NS(=O)(=O)c3ccc(C#N)cc3)ccc2n(CC)c1=O`
129

###

# System: Fibroblast
# TEST DETAILS: Multiplex assay against human fibroblast
# Format: toxicity, cell-based
# EXPERIMENTAL PARAMETERS: 24 h, 1 µM, compound concentration 1 uM, replicate 2
Examples of compounds with documented Population Mitochondria Different-Phenotype (%) follow.
Just the number in %, nothing appended.

Examples with their reported Population Mitochondria Different-Phenotype (%) follow.
• N#Cc1c(Oc2cccc(OS(=O)(=O)CCCC(F)(F)F)c2)cccc1C(F)(F)F = 5
• CC[C@@H](C)Nc1nc(C)nc2c(-c3ccc(OC)nc3C)c(C)nn12 = 2
• COc1cccc2c1c(NS(=O)(=O)c1ccc(Cl)s1)nn2Cc1cccc(CNC(=O)C(C)(C)O)c1 = 5

Requested field: Population Mitochondria Different-Phenotype (%). Item: `Cc1cccc(NC(=O)CN2CCC(c3ccccn3)CC2)c1.Cl.Cl`
6

Now the same for Cc1sc2c(c1C)C(c1ccc(Cl)cc1)=N[C@@H](CC(=O)NCCCCCCCCNC(=O)COc1cccc3c1C(=O)N(C1CCC(=O)NC1=O)C3=O)c1nnc(C)n1-2 (stereo partly drawn)
20

Now the same for `CCCCC1=NC2(CCCC2)C(=O)N1Cc1ccc(-c2ccccc2-c2nnn[nH]2)cc1`
0

Now the same for `CC(/C=C1\SC(=S)N(CCCC(=O)Nc2ccc(C(=O)O)c(O)c2)C1=O)=C\c1ccccc1`
12

Now the same for `CCCCC(=O)N(Cc1ccc(-c2ccccc2-c2nnn[nH]2)cc1)[C@H](C(=O)O)C(C)C`
1

###

# Tested on: HEK-293T
# TEST DETAILS: Multiplex assay against HEK293T
# Assay type: toxicity, cell-based
# EXPERIMENTAL PARAMETERS: human, 48 h, 10 µM, compound concentration 10 uM, replicate 1
MEASURED METRIC: Population Healthy Nuclei (%)
Just the number in %, nothing appended.

Examples with their reported Population Healthy Nuclei (%) follow.
- COc1cccc2c1c(NS(=O)(=O)c1ccc(Cl)s1)nn2Cc1cccc(CNC(=O)C(C)(C)O)c1: 72
- Cl.NCCc1ccc(O)c(O)c1 [DOPAMINE HYDROCHLORIDE]: 79
- O=C(CCCc1ccccc1)Nc1nc2ccccc2c(=O)s1: 79
- O=C(NCCN1CCC(n2c(=O)[nH]c3cc(Cl)ccc32)CC1)c1ccc(F)cc1 [HALOPEMIDE]: 72
- Cl.N=C(N)NC(=O)Cc1c(Cl)cccc1Cl [GUANFACINE HYDROCHLORIDE]: 73
- CCCCC1=NC2(CCCC2)C(=O)N1Cc1ccc(-c2ccccc2-c2nnn[nH]2)cc1: 75
- Cc1cnc(-c2cc(N3CCN(C(=O)CCS(C)(=O)=O)CC3)ncc2Cl)c(C)c1: 78
- Cc1c(CC(=O)O)c2cccnc2n1Cc1ccc(S(C)(=O)=O)cc1C(F)(F)F: 78

Requested field: Population Healthy Nuclei (%). Item: `Cc1cccc(NC(=O)CN2CCC(c3ccccn3)CC2)c1.Cl.Cl`
75

Now the same for `CN1CCN(c2cc(-c3ccccc3)nc(N)n2)CC1`
75

###

# Test system: HEK-293T
# TEST DETAILS: Multiplex assay against HEK293T
# Format: toxicity, cell-based
# EXPERIMENTAL PARAMETERS: human, 24 h, 1 µM, compound concentration 1 uM, replicate 1
The label is Criterion met for Population Hoechst High Intensity Objects (%) below 5% and Criterion not met for Population Hoechst High Intensity Objects (%) equal to or exceeding 5%.

* CC(=O)Nc1cccc2c1c(Sc1ccc(Cl)cc1)c(C)n2CC(=O)O | Criterion met
* Cc1cnc(-c2cc(N3CCN(C(=O)CCS(C)(=O)=O)CC3)ncc2Cl)c(C)c1 | Criterion met
* CC(C)(C)c1cc(NC(=O)Nc2ccc(-c3cn4c(n3)sc3cc(OCCN5CCOCC5)ccc34)cc2)no1 | Criterion not met
* N#Cc1c(Oc2cccc(OS(=O)(=O)CCCC(F)(F)F)c2)cccc1C(F)(F)F | Criterion met
* NCCc1cn(S(=O)(=O)c2c(Cl)nc3sccn23)c2ccccc12.O=C(O)C(=O)O | Criterion not met
* COc1cccc2c1c(NS(=O)(=O)c1ccc(Cl)s1)nn2Cc1cccc(CNC(=O)C(C)(C)O)c1 | Criterion met
* COc1ccccc1N1CCN(C[C@@H](C(=O)NC(C)(C)C)c2ccccc2)CC1.Cl.Cl | Criterion met
* CN1CCN(c2cc(-c3ccccc3)nc(N)n2)CC1 | Criterion met
* CC[C@@H](C)Nc1nc(C)nc2c(-c3ccc(OC)nc3C)c(C)nn12 | Criterion met

Could you now consider this next compound?
Lab note: Population Hoechst High Intensity Objects (%) threshold 5%. Does this compound come in strictly under it? `CN[C@@H](C)C(=O)N[C@H](C(=O)N1CCC[C@H]1C(=O)Nc1snnc1-c1ccccc1)C1CCCCC1`
Criterion met

###

# System: U2OS
# TEST DETAILS: Multiplex assay against U2OS
# Format: toxicity, cell-based
# EXPERIMENTAL PARAMETERS: human, 48 h, 1 µM, compound concentration 1 uM, replicate 2
Examples of molecules with documented Population Mitochondria Different-Phenotype (%) follow.

* Cl.NCCc1ccc(O)c(O)c1 [DOPAMINE HYDROCHLORIDE] | 4%
* N#Cc1c(Oc2cccc(OS(=O)(=O)CCCC(F)(F)F)c2)cccc1C(F)(F)F | 4%
* O=C1[C@H](Cc2ccc(O)cc2)N2C(=O)CCN(C(=O)NCc3ccccc3)[C@H]2CN1Cc1cccc2ccccc12 | 0%
* CN1CCN(c2cc(-c3ccccc3)nc(N)n2)CC1 | 2%
* CCCCC1=NC2(CCCC2)C(=O)N1Cc1ccc(-c2ccccc2-c2nnn[nH]2)cc1 | 1%
* Cc1cnc(-c2cc(N3CCN(C(=O)CCS(C)(=O)=O)CC3)ncc2Cl)c(C)c1 | 5%
* O=C(NCCN1CCC(n2c(=O)[nH]c3cc(Cl)ccc32)CC1)c1ccc(F)cc1 [HALOPEMIDE] | 5%
* CC(C)(C)c1cc(NC(=O)Nc2ccc(-c3cn4c(n3)sc3cc(OCCN5CCOCC5)ccc34)cc2)no1 | 7%

Switching to the query record.
Requested field: Population Mitochondria Different-Phenotype (%). Item: Cl.N=C(N)NC(=O)Cc1c(Cl)cccc1Cl [GUANFACINE HYDROCHLORIDE]
4%

###

Examples of compounds with documented Population Hoechst High Intensity Objects (%) follow.
# Test system: HEK-293T
# TEST DETAILS: Multiplex assay against HEK293T
# Format: toxicity, cell-based
# EXPERIMENTAL PARAMETERS: human, 48 h, 1 µM, compound concentration 1 uM, replicate 2
Just the number in %, nothing appended.

- Cc1cccc(NC(=O)CN2CCC(c3ccccn3)CC2)c1.Cl.Cl: 4
- CC(/C=C1\SC(=S)N(CCCC(=O)Nc2ccc(C(=O)O)c(O)c2)C1=O)=C\c1ccccc1: 5
- CCCCC(=O)N(Cc1ccc(-c2ccccc2-c2nnn[nH]2)cc1)[C@H](C(=O)O)C(C)C: 3
- Br.CS(=O)(=O)Nc1c(O)ccc2c1CCCC2C1=NCCN1 (stereo not given): 6
- CN1CCN(c2cc(-c3ccccc3)nc(N)n2)CC1: 2

Requested field: Population Hoechst High Intensity Objects (%). Item: `COc1ccccc1N1CCN(C[C@@H](C(=O)NC(C)(C)C)c2ccccc2)CC1.Cl.Cl`
6

Now the same for `N#Cc1cc(F)cc(-c2nc(-c3ccc(F)cn3)no2)c1`
0

Now the same for CCCCC1=NC2(CCCC2)C(=O)N1Cc1ccc(-c2ccccc2-c2nnn[nH]2)cc1 [IRBESARTAN]
2

Now the same for `Cc1cnc(-c2cc(N3CCN(C(=O)CCS(C)(=O)=O)CC3)ncc2Cl)c(C)c1`
2

Now the same for Cc1c(CC(=O)O)c2cccnc2n1Cc1ccc(S(C)(=O)=O)cc1C(F)(F)F [FEVIPIPRANT]
2

Now the same for CC(C)(C)c1cc(NC(=O)Nc2ccc(-c3cn4c(n3)sc3cc(OCCN5CCOCC5)ccc34)cc2)no1 [QUIZARTINIB]
2

Now the same for CC(C)c1noc(N2CCC(COc3ccc(-c4ccc(S(C)(=O)=O)cc4)nc3)CC2)n1 [GSK-1292263]
1

Now the same for `N#Cc1c(Oc2cccc(OS(=O)(=O)CCCC(F)(F)F)c2)cccc1C(F)(F)F`
5

Now the same for `O=C(CCCc1ccccc1)Nc1nc2ccccc2c(=O)s1`
4

Now the same for CN[C@@H](C)C(=O)N[C@H](C(=O)N1CCC[C@H]1C(=O)Nc1snnc1-c1ccccc1)C1CCCCC1 [GDC-0152]
3
